Recorded Rabbit placenta inhibition % @100 nM by entry
# Test system: HSD1 enzyme that is expressed in rabbit placenta tissue
# test-summary: Inhibition of E1 to E2 conversion in rabbit placenta tissue homogenate
# Type: biochemical
# protocol-conditions: compound 100 nM, 30 nM estrone, 1 mM β-NADPH, 30 min
# Method: The assay is based on an enzymatic reaction where HSD1 enzyme that is expressed in rabbit placenta tissue converts its natural substance estrone (E1) to estradiol (E2) in the presence of a co-factor β-NADPH. Homogenization of rabbit placenta tissue: Weight a piece of the frozen tissue into a Precellys ck28 bead tube. […] Percent inhibition was calculated followingly: % inhibition=100−% conversion.
value-type: Rabbit placenta inhibition % @100 nM

[[record]]
compound = "C[C@]12CCC3c4ccccc4CCC3C1[C@H](CCC(=O)NC1CCOCC1)c1c[nH]nc12 (stereo partly drawn)"
result = "10%"

[[record]]
compound = "C[C@]12CCC3c4cccc(F)c4CCC3C1[C@H](CCC(=O)Nc1ccc(N3CCOCC3)cn1)c1c[nH]nc12 (stereo partly drawn)"
result = "69%"

[[record]]
compound = "C[C@]12CCC3c4cccc(F)c4CCC3C1[C@H](CCC(=O)Nc1nncs1)c1c[nH]nc12 (stereo partly drawn)"
result = "31%"

[[record]]
compound = "C[C@]12CCC3c4cccc(F)c4CCC3C1[C@H](CCC(=O)NC1CCOC1)c1c[nH]nc12 (stereo partly drawn)"
result = "10%"

[[record]]
compound = "COc1ccnc(NC(=O)CC[C@@H]2c3c[nH]nc3[C@@]3(C)CCC4c5ccccc5CCC4C23)c1 (stereo partly drawn)"
result = "34%"

[[record]]
compound = "C[C@]12CCC3c4cccc(F)c4CCC3C1[C@H](CCC(=O)N1Cc3ccccc3C1)c1c[nH]nc12 (stereo partly drawn)"
result = "48%"


====

# System: HSD1 enzyme that is expressed in rabbit placenta tissue
# test-summary: Inhibition of E1 to E2 conversion in rabbit placenta tissue homogenate
# Type: biochemical
# protocol-conditions: compound 100 nM, 30 nM estrone, 1 mM β-NADPH, 30 min
value-type: Rabbit placenta inhibition % @100 nM (%)

[[record]]
molecule = "C[C@]12CCC3c4ccccc4CCC3C1[C@H](CCC(=O)Nc1cccc(F)n1)c1c[nH]nc12 (some centres unmarked)"
value_type = "Rabbit placenta inhibition % @100 nM"
unit_name = "%"
measured_number = 43

[[record]]
molecule = "CN(C)C(=O)c1ccc(NC(=O)CC[C@@H]2c3c[nH]nc3[C@@]3(C)CCC4c5ccccc5CCC4C23)nc1 (some centres unmarked)"
value_type = "Rabbit placenta inhibition % @100 nM"
unit_name = "%"
measured_number = 50

[[record]]
molecule = "C[C@]12CCC3c4cccc(F)c4CCC3C1[C@H](CCC(=O)NC1CCCCC1)c1c[nH]nc12 (some centres unmarked)"
value_type = "Rabbit placenta inhibition % @100 nM"
unit_name = "%"
measured_number = 14

[[record]]
molecule = "C[C@]12CCC3c4cccc(F)c4CCC3C1[C@H](CCC(=O)Nc1cc(N3CCOCC3)ccn1)c1c[nH]nc12 (some centres unmarked)"
value_type = "Rabbit placenta inhibition % @100 nM"
unit_name = "%"
measured_number = 35

[[record]]
molecule = "C[C@]12CCC3c4cccc(F)c4CCC3C1[C@H](CCC(=O)Nc1ccc(C#N)cn1)c1c[nH]nc12 (some centres unmarked)"
value_type = "Rabbit placenta inhibition % @100 nM"
unit_name = "%"
measured_number = 54

[[record]]
molecule = "CC(C)c1ccc(NC(=O)CC[C@@H]2c3c[nH]nc3[C@@]3(C)CCC4c5ccccc5CCC4C23)nc1 (some centres unmarked)"
value_type = "Rabbit placenta inhibition % @100 nM"
unit_name = "%"
measured_number = 18

[[record]]
molecule = "Cc1cc(NC(=O)CC[C@@H]2c3c[nH]nc3[C@@]3(C)CCC4c5ccccc5CCC4C23)no1 (some centres unmarked)"
value_type = "Rabbit placenta inhibition % @100 nM"
unit_name = "%"
measured_number = 19

[[record]]
molecule = "C[C@]12CCC3c4cccc(F)c4CCC3C1[C@H](CCC(=O)Nc1cnccn1)c1c[nH]nc12 (some centres unmarked)"
value_type = "Rabbit placenta inhibition % @100 nM"
unit_name = "%"
measured_number = 59

[[record]]
molecule = "C[C@]12CCC3c4ccccc4CCC3C1[C@H](CCC(=O)Nc1cnccn1)c1c[nH]nc12 (some centres unmarked)"
value_type = "Rabbit placenta inhibition % @100 nM"
unit_name = "%"
measured_number = 46

[[record]]
molecule = "COc1ccc(NC(=O)CC[C@@H]2c3c[nH]nc3[C@@]3(C)CCC4c5ccc(F)cc5CCC4C23)nc1 (some centres unmarked)"
value_type = "Rabbit placenta inhibition % @100 nM"
unit_name = "%"
measured_number = 27

[[record]]
molecule = "Cn1ccc(NC(=O)CC[C@@H]2c3c[nH]nc3[C@@]3(C)CCC4c5cccc(F)c5CCC4C23)n1 (some centres unmarked)"
value_type = "Rabbit placenta inhibition % @100 nM"
unit_name = "%"
measured_number = 52

[[record]]
molecule = "C[C@]12CCC3c4cccc(F)c4CCC3C1[C@H](CCC(=O)Nc1ncc(F)cc1F)c1c[nH]nc12 (some centres unmarked)"
value_type = "Rabbit placenta inhibition % @100 nM"
unit_name = "%"
measured_number = 26

[[record]]
molecule = "C[C@]12CCC3c4ccc(Cl)cc4CCC3C1[C@H](CCC(=O)Nc1cccc(F)n1)c1c[nH]nc12 (some centres unmarked)"
value_type = "Rabbit placenta inhibition % @100 nM"
unit_name = "%"
measured_number = 31

[[record]]
molecule = "C[C@]12CCC3c4cccc(F)c4CCC3C1[C@H](CCC(=O)Nc1ncccc1F)c1c[nH]nc12 (some centres unmarked)"
value_type = "Rabbit placenta inhibition % @100 nM"
unit_name = "%"
measured_number = 35

[[record]]
molecule = "C[C@]12CCC3c4ccccc4CCC3C1[C@H](CCC(=O)Nc1ccccn1)c1c[nH]nc12 (some centres unmarked)"
value_type = "Rabbit placenta inhibition % @100 nM"
unit_name = "%"
measured_number = 27

[[record]]
molecule = "CN(CC1CC1)C(=O)CC[C@@H]1c2c[nH]nc2[C@@]2(C)CCC3c4ccccc4CCC3C12 (some centres unmarked)"
value_type = "Rabbit placenta inhibition % @100 nM"
unit_name = "%"
measured_number = 14

[[record]]
molecule = "COc1ccc(NC(=O)CC[C@@H]2c3c[nH]nc3[C@@]3(C)CCC4c5ccccc5CCC4C23)nc1 (some centres unmarked)"
value_type = "Rabbit placenta inhibition % @100 nM"
unit_name = "%"
measured_number = 35

[[record]]
molecule = "C[C@]12CCC3c4cccc(F)c4CCC3C1[C@H](CCC(=O)Nc1ccc(F)cn1)c1c[nH]nc12 (some centres unmarked)"
value_type = "Rabbit placenta inhibition % @100 nM"
unit_name = "%"
measured_number = 46

[[record]]
molecule = "C[C@]12CCC3c4ccc(Cl)cc4CCC3C1[C@H](CCC(=O)Nc1cc3c([nH]c1=O)CCCC3)c1c[nH]nc12 (some centres unmarked)"
value_type = "Rabbit placenta inhibition % @100 nM"
unit_name = "%"
measured_number = 17

[[record]]
molecule = "C[C@]12CCC3c4cccc(F)c4CCC3C1[C@H](CCC(=O)Nc1ccccn1)c1c[nH]nc12 (some centres unmarked)"
value_type = "Rabbit placenta inhibition % @100 nM"
unit_name = "%"
measured_number = 44

[[record]]
molecule = "CN(C)C(=O)c1ccc(NC(=O)CC[C@@H]2c3c[nH]nc3[C@@]3(C)CCC4c5cccc(F)c5CCC4C23)nc1 (some centres unmarked)"
value_type = "Rabbit placenta inhibition % @100 nM"
unit_name = "%"
measured_number = 68

[[record]]
molecule = "C[C@]12CCC3c4ccccc4CCC3C1[C@H](CCC(=O)N1CCC3(CCOCC3)C1)c1c[nH]nc12 (some centres unmarked)"
value_type = "Rabbit placenta inhibition % @100 nM"
unit_name = "%"
measured_number = 16

[[record]]
molecule = "C[C@]12CCC3c4cccc(F)c4CCC3C1[C@H](CCC(=O)NN1CCCCC1)c1c[nH]nc12 (some centres unmarked)"
value_type = "Rabbit placenta inhibition % @100 nM"
unit_name = "%"
measured_number = 10

[[record]]
molecule = "C[C@]12CCC3c4ccc(F)cc4CCC3C1[C@H](CCC(=O)Nc1cnccn1)c1c[nH]nc12 (some centres unmarked)"
value_type = "Rabbit placenta inhibition % @100 nM"
unit_name = "%"
measured_number = 34

[[record]]
molecule = "CN1CCN(c2ccc(NC(=O)CC[C@@H]3c4c[nH]nc4[C@@]4(C)CCC5c6ccccc6CCC5C34)nc2)CC1 (some centres unmarked)"
value_type = "Rabbit placenta inhibition % @100 nM"
unit_name = "%"
measured_number = 77

[[record]]
molecule = "C[C@]12CCC3c4ccc(Cl)cc4CCC3C1[C@H](CCC(=O)Nc1cc(F)ccn1)c1c[nH]nc12 (some centres unmarked)"
value_type = "Rabbit placenta inhibition % @100 nM"
unit_name = "%"
measured_number = 28

[[record]]
molecule = "COc1ccnc(NC(=O)CC[C@@H]2c3c[nH]nc3[C@@]3(C)CCC4c5cccc(F)c5CCC4C23)c1 (some centres unmarked)"
value_type = "Rabbit placenta inhibition % @100 nM"
unit_name = "%"
measured_number = 57

[[record]]
molecule = "CN1CCN(c2ccc(NC(=O)CC[C@@H]3c4c[nH]nc4[C@@]4(C)CCC5c6cccc(F)c6CCC5C34)nc2)CC1 (some centres unmarked)"
value_type = "Rabbit placenta inhibition % @100 nM"
unit_name = "%"
measured_number = 82

[[record]]
molecule = "CC(C)(C)c1cc(NC(=O)CC[C@@H]2c3c[nH]nc3[C@@]3(C)CCC4c5ccc(F)cc5CCC4C23)no1 (some centres unmarked)"
value_type = "Rabbit placenta inhibition % @100 nM"
unit_name = "%"
measured_number = 19

